- experimental_target: T1, human GM-CSFRα, full length on cells (human, UniProt P15509 23-400)
- T1 sequence: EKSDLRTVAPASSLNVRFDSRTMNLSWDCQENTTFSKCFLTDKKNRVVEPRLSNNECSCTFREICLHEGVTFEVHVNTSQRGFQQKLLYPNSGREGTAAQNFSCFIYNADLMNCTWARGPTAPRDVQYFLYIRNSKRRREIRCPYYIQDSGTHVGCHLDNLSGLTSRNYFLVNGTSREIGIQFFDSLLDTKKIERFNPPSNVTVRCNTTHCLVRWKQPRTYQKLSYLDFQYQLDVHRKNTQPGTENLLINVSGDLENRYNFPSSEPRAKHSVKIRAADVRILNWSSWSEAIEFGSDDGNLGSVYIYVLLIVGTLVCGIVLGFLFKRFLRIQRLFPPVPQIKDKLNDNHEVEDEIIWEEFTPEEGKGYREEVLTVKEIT
- assay_details: cell-based or functional assay
metric: IC50, TF-1 cell proliferation (mg/L)

INSERT INTO results (binder, observed_result) VALUES
  ('E35-scFv HE31F (scFv, V domains shown) VH: QMQLVQSGAEVKKPGASVKVSCKVSGYTLTFLSIHWVRQAPGKGLEWMGGFDPEDGETIYAQKFQGRVTMTGDTSTDTAYLELSSLRSEDTALYYCATGRYTSLATTYGFDYWGQGTLVTVSS VL: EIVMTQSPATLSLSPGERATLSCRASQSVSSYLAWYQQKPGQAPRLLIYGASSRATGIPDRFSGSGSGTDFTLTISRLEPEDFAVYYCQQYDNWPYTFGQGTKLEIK', 0.18),
  ('E35-scFv LN93T (scFv, V domains shown) VH: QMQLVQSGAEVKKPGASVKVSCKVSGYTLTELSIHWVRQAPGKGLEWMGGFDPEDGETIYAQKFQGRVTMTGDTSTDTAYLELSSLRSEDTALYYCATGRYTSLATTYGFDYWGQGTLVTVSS VL: EIVMTQSPATLSLSPGERATLSCRASQSVSSYLAWYQQKPGQAPRLLIYGASSRATGIPDRFSGSGSGTDFTLTISRLEPEDFAVYYCQQYDTWPYTFGQGTKLEIK', 0.14),
  ('E35-scFv HT28G (scFv, V domains shown) VH: QMQLVQSGAEVKKPGASVKVSCKVSGYGLTELSIHWVRQAPGKGLEWMGGFDPEDGETIYAQKFQGRVTMTGDTSTDTAYLELSSLRSEDTALYYCATGRYTSLATTYGFDYWGQGTLVTVSS VL: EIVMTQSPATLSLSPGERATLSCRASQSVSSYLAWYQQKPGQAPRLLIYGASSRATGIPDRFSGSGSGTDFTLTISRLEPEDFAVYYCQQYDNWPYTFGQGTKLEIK', 0.16);
